# subjectOfTest: Cannabinoid receptor 1 (Rattus norvegicus)
# Sequence (P20272 whole entry): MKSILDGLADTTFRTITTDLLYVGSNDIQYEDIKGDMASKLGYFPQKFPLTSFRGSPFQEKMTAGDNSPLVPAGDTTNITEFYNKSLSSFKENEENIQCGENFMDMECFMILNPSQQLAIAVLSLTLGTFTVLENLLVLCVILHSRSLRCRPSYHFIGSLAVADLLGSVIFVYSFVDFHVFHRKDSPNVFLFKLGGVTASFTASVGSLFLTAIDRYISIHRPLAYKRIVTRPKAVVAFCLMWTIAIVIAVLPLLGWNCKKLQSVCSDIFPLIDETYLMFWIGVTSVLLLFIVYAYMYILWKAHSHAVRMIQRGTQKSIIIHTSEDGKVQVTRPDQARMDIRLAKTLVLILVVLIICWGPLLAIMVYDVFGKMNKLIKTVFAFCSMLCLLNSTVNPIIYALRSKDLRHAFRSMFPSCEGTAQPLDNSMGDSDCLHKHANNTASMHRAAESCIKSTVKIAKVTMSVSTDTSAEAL
# protocolNotes: […] [3H]WIN-55212 binding to Cannabinoid receptor 1 in rat cerebellum membranes.
Recorded log10(IC50) for the following molecules
endpointLabel: log10(IC50) (log10 of the value in nM)

>  <molecule>
COc1ccc(C(=O)c2c(C)n(CCN3CCSCC3)c3ccccc23)cc1

>  <log10(IC50)>
2.79

$$$$
>  <molecule>
Cc1ccc2c(C(=O)c3cccc4ccccc34)cn(CCN3CCOCC3)c2c1

>  <log10(IC50)>
0.54

$$$$
>  <molecule>
COc1ccc(C(=O)c2c(C)n(CCN3CCOCC3)c3ccccc23)cc1

>  <log10(IC50)>
3.50

$$$$
>  <molecule>
O=C(c1cccc2occc12)c1cn(CCN2CCOCC2)c2ccccc12

>  <log10(IC50)>
1.38

$$$$
>  <molecule>
Cc1c(C(=O)c2cccc3ccccc23)c2ccc(Br)cc2n1CCN1CCOCC1

>  <log10(IC50)>
1.00

$$$$
>  <molecule>
CCc1ccc(C(=O)c2c(C)n(CCN3CCOCC3)c3ccccc23)cc1

>  <log10(IC50)>
2.49

$$$$
>  <molecule>
O=C(c1cccc2ccccc12)c1cn(CCN2CCOCC2)c2ccc(F)cc12

>  <log10(IC50)>
1.54

$$$$
>  <molecule>
Cc1c(C(=O)c2ccc3ncccc3c2)c2ccccc2n1CCN1CCOCC1

>  <log10(IC50)>
2.70

$$$$
>  <molecule>
O=C(c1cccc2ccccc12)c1cn(CCN2CCOCC2)c2ccc(Br)cc12

>  <log10(IC50)>
2.27

$$$$
>  <molecule>
COc1ccc(C(=O)c2c(C)n(CCN3CCOCC3)c3cc(Br)ccc23)cc1

>  <log10(IC50)>
2.71

$$$$
>  <molecule>
COc1ccc(C(=O)c2c(C)n(CCN3CCOCC3)c3ccccc23)c2ccccc12

>  <log10(IC50)>
1.74

$$$$
>  <molecule>
COc1cccc2c(C(=O)c3cccc4ccccc34)c(C)n(CCN3CCOCC3)c12

>  <log10(IC50)>
1.00

$$$$
>  <molecule>
O=C(c1cccc2ccccc12)c1cn(CCCN2CCOCC2)c2ccccc12

>  <log10(IC50)>
1.63

$$$$
>  <molecule>
Cc1c(C(=O)c2ccc(Br)c3ccccc23)c2ccccc2n1CCN1CCOCC1

>  <log10(IC50)>
0.84

$$$$
>  <molecule>
COc1ccc(C(=O)c2c(C)n(CCN3CCOCC3)c3c(C)cccc23)cc1

>  <log10(IC50)>
3.18

$$$$
>  <molecule>
Cc1c(C(=O)c2ccc3ccccc3n2)c2ccccc2n1CCN1CCOCC1

>  <log10(IC50)>
2.52

$$$$
>  <molecule>
O=C(c1c2ccccc2cc2ccccc12)c1cn(CCN2CCOCC2)c2ccccc12

>  <log10(IC50)>
3.47

$$$$
>  <molecule>
Cc1c(C(=O)c2cccc3ccccc23)c2ccccc2n1CCN1CCOCC1C (centres undefined)

>  <log10(IC50)>
2.58

$$$$
>  <molecule>
Cc1c(C(=O)c2cccc3ccccc23)c2ccccc2n1CCN1CCOC(C)C1 (centres undefined)

>  <log10(IC50)>
1.77

$$$$
>  <molecule>
Cc1c(C(=O)c2ccc3ccccc3c2)c2ccccc2n1CCN1CCOCC1

>  <log10(IC50)>
2.11

$$$$
>  <molecule>
COc1ccc(C(=O)c2c(C)n(CCN3CCOCC3)c3c(F)cccc23)cc1

>  <log10(IC50)>
2.76

$$$$
>  <molecule>
Cc1c(C(=O)c2cccc3cccnc23)c2ccccc2n1CCN1CCOCC1

>  <log10(IC50)>
2.44

$$$$
>  <molecule>
Cc1c(C(=O)c2cccc3ncccc23)c2ccccc2n1CCN1CCOCC1

>  <log10(IC50)>
2.92

$$$$
>  <molecule>
COc1ccc(C(=O)c2cn(CCN3CCOCC3)c3ccccc23)cc1

>  <log10(IC50)>
2.59

$$$$
>  <molecule>
O=C(c1ccc(O)c2ccccc12)c1cn(CCN2CCOCC2)c2ccccc12

>  <log10(IC50)>
0.53

$$$$
>  <molecule>
O=C(c1ccc2ccoc2c1)c1cn(CCN2CCOCC2)c2ccccc12

>  <log10(IC50)>
2.48

$$$$
>  <molecule>
COc1ccccc1C(=O)c1c(C)n(CCN2CCOCC2)c2ccccc12

>  <log10(IC50)>
2.90

$$$$
>  <molecule>
CCCc1ccc(C(=O)c2c(C)n(CCN3CCOCC3)c3ccccc23)cc1

>  <log10(IC50)>
3.05

$$$$
>  <molecule>
Cc1cccc(C(=O)c2c(C)n(CCN3CCOCC3)c3ccccc23)c1

>  <log10(IC50)>
2.78

$$$$
>  <molecule>
Cc1ccc(C(=O)c2cn(CCN3CCOCC3)c3ccccc23)c2ccccc12

>  <log10(IC50)>
0.45

$$$$
>  <molecule>
O=C(c1cn(CCN2CCOCC2)c2ccccc12)c1cccc2ccoc12

>  <log10(IC50)>
1.26

$$$$
>  <molecule>
Cc1ccc2c(C(=O)c3cccc4ccccc34)c(C)n(CCN3CCOCC3)c2c1

>  <log10(IC50)>
1.04

$$$$
>  <molecule>
O=C(c1cccc2ccccc12)c1c(Cl)n(CCN2CCOCC2)c2ccccc12

>  <log10(IC50)>
1.00

$$$$
>  <molecule>
Cc1c(C(=O)c2cccc(Cl)c2)c2ccccc2n1CCN1CCOCC1

>  <log10(IC50)>
3.12

$$$$
>  <molecule>
O=C(c1cn(CCN2CCOCC2)c2ccccc12)C1CCCc2ccccc21 (centres undefined)

>  <log10(IC50)>
1.58

$$$$
>  <molecule>
Cc1c(C(=O)c2cccc3ccccc23)c2ccccc2n1CCN1CCOCC1

>  <log10(IC50)>
1.28

$$$$
>  <molecule>
Cc1c(C(=O)c2coc3ccccc23)c2ccccc2n1CCN1CCOCC1

>  <log10(IC50)>
2.04

$$$$
>  <molecule>
Cc1c(C(=O)c2cccc3ccoc23)c2ccccc2n1CCN1CCOCC1

>  <log10(IC50)>
1.85

$$$$
>  <molecule>
Cc1ccc(C(=O)c2c(C)n(CCN3CCOCC3)c3ccccc23)cc1

>  <log10(IC50)>
3.25

$$$$

This collection of values is drawn from ChEMBL document CHEMBL1128746.
